Reported clearance values follow for various compounds
Assay: in vivo
Conditions: mouse
Express your answer in mL/min/kg, writing the number without its unit.

structure_as_smiles=NC(=O)c1cccc2c(N[C@H](CN3CCC3)c3ccc(Cl)c(C(F)(F)F)c3)ncnc12 uom=mL/min/kg observed_measurement=25

(Q) Look up clearance for this compound: CNC[C@@H](Nc1ncnc2c(C(N)=O)cccc12)c1cccc(F)c1
(A) 29

* * *

Assay: in vivo
Settings: dog
Endpoint Name: half-life (min)
Express your answer in min, writing the number without its unit.

(Q) Which half-life value is on record for NC(=O)c1cccc2c(N[C@H](CN3CCC3)c3ccc(Cl)c(C(F)(F)F)c3)ncnc12 [RUPITASERTIB] ?
(A) 246

* * *

Assay: in vivo
Conditions: rat
Description: Volume of distribution at steady state in rat
Endpoint Name: Vd

(Q) # Vd lookup, item NC(=O)c1cccc2c(N[C@H](CN3CCC3)c3ccc(Cl)c(C(F)(F)F)c3)ncnc12
(A) 17.6 L/kg

* * *

Biological target: UniProt:Q12809
Sequence (Q12809 whole entry): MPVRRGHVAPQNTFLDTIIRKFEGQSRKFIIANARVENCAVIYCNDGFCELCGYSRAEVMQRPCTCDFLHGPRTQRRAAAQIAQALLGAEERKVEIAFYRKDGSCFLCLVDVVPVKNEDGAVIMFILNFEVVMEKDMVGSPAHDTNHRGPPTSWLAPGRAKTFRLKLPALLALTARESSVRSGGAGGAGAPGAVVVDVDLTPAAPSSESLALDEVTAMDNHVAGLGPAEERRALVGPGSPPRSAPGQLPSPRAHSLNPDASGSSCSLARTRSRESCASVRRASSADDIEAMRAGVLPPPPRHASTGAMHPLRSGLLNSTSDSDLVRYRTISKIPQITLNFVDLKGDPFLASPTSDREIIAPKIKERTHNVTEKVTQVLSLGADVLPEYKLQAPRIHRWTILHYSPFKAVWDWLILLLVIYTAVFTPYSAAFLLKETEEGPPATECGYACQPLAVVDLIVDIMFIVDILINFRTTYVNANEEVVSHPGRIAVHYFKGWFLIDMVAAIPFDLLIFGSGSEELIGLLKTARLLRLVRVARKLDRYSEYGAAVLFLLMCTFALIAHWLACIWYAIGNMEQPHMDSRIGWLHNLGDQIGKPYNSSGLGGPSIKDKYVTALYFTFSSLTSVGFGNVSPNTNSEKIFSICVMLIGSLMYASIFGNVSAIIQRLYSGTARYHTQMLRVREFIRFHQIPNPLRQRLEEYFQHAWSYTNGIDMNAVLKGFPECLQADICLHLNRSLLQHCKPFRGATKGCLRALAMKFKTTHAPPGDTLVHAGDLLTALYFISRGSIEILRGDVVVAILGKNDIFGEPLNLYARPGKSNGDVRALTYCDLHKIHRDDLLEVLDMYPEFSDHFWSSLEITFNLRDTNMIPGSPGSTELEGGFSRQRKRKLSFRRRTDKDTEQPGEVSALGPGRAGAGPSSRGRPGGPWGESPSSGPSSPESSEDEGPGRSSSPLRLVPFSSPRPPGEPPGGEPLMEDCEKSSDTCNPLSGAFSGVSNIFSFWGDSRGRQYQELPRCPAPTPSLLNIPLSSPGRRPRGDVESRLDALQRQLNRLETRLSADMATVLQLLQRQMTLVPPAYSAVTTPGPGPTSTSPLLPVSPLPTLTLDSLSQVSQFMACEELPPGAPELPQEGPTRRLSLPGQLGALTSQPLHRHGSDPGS
Assay: in vitro
Description: Inhibition of human ERG at 10 uM relative to control
Endpoint Name: inhibition at 10 µM (%)
Reply with just the number (in %).

(Q) So what does the record say about inhibition at 10 µM for CNC[C@@H](Nc1ncnc2c(C(N)=O)cccc12)c1cccc(F)c1 ?
(A) 26

* * *

Experiment: in vivo
Conditions: cynomolgus monkey, po
Description: Oral bioavailability in cynomolgus monkey
Endpoint Name: bioavailability (%)
Write the number in % without appending the unit.

(Q) Param item = NC(=O)c1cccc2c(N[C@H](CN3CCC3)c3ccc(Cl)c(C(F)(F)F)c3)ncnc12 ; retrieve measured bioavailability.
(A) 44

* * *

Test: in vivo
Conditions: cynomolgus monkey
Description: Clearance in cynomolgus monkey
Endpoint Name: clearance
Output should be the measured figure followed by the unit it is expressed in.

(Q) Reported clearance, compound NC(=O)c1cccc2c(N[C@H](CN3CCC3)c3ccc(Cl)c(C(F)(F)F)c3)ncnc12 [RUPITASERTIB] : ____
(A) 15 mL/min/kg

* * *

Assay: in vivo
Details: rat
Endpoint Name: half-life (h)
The response must be a number in h with no trailing unit.

(Q) Fill in the blank: the reported half-life of NC(=O)c1cccc2c(N[C@H](CN3CCC3)c3ccc(Cl)c(C(F)(F)F)c3)ncnc12 is ____.
(A) 3.9

* * *

Target: Aurora kinase B/Inner centromere protein (Homo sapiens, UniProt Q96GD4)
Sequence (Q96GD4 whole entry): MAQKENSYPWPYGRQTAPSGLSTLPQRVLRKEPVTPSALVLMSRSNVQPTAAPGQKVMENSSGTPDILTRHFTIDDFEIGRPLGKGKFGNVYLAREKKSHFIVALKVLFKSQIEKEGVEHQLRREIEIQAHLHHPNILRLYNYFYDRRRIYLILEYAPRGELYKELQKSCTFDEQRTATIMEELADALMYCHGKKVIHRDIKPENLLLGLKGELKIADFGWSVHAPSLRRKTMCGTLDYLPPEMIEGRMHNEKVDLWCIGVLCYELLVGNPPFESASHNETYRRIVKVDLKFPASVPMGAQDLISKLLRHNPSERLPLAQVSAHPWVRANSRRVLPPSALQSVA
Sequence (Q9NQS7 whole entry, further chain): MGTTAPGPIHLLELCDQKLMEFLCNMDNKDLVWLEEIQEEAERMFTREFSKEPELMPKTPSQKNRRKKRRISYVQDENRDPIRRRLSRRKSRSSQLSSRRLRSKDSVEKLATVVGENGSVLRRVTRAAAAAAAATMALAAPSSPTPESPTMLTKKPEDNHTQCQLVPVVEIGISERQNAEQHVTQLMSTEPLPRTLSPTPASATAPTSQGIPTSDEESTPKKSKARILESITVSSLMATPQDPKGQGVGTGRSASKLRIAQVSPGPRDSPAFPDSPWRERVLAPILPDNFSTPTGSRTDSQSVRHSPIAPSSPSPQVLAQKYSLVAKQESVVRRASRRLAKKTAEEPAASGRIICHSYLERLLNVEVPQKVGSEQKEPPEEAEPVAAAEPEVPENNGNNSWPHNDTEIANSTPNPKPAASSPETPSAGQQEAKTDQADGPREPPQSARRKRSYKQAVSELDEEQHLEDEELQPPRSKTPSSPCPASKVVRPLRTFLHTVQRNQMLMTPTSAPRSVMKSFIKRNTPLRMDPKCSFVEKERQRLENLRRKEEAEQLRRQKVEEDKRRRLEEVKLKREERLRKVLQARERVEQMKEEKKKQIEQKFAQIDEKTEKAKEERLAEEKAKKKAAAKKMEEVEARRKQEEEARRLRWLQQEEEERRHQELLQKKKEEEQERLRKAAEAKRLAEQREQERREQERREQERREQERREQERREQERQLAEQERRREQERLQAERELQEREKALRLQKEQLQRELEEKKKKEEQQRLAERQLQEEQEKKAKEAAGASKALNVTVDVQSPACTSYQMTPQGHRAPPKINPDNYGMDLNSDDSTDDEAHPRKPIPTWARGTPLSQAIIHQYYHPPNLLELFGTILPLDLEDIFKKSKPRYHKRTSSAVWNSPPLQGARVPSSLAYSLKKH
Experiment: biochemical
Endpoint Name: IC50 (nM)
Form entry: value (nM) — number only.

# example entries with known answers
compound=NC(=O)c1cccc2c(N[C@H](CN3CCC3)c3ccc(Cl)c(C(F)(F)F)c3)ncnc12 uom=nM observed_measurement=170
compound=CNC[C@@H](Nc1nc(C)nc2c(C(N)=O)cccc12)c1cccc(F)c1 uom=nM observed_measurement=6
compound="CNCC(Nc1ncnc2c(C(N)=O)cccc12)c1cccc(F)c1 (racemic)" uom=nM observed_measurement=9

Shifting focus to the compound that follows.
(Q) Which IC50 value is on record for CNC[C@@H](Nc1ncnc2c(C(N)=O)cccc12)c1cccc(F)c1 ?
(A) 4

* * *

Molecular target: Aurora kinase B/Inner centromere protein (Homo sapiens)
Assay: biochemical
Reported IC50 values are given for each entry in this list.
Respond with the bare value in nM.

// worked examples, IC50 included
structure_as_smiles=NC(=O)c1cccc2c(N[C@H](CN3CCC3)c3ccc(Cl)c(F)c3)ncnc12 endpoint_name=IC50 uom=nM observed_measurement=75
structure_as_smiles=NC(=O)c1cccc2c(N[C@H](CN3CCCC3)c3cccc(F)c3)ncnc12 endpoint_name=IC50 uom=nM observed_measurement=45
structure_as_smiles=NC(=O)c1cccc2c(N[C@H](CN3CCC3)c3ccc(F)c(C(F)(F)F)c3)ncnc12 endpoint_name=IC50 uom=nM observed_measurement=233

From here, focus on the item given below.
(Q) Item under review: CCc1nc(N[C@H](CNC)c2cccc(F)c2)c2cccc(C(N)=O)c2n1 . Reported IC50?
(A) 51

* * *

As shown below, each of these molecules has a reported pIC50 value.
Experiment: cells
Type: cell-based
Settings: Homo sapiens, MDA-MB-468
Hey, just a heads up that pIC50 is the negative log base 10 of the concentration in molar.

Example molecules with recorded pIC50:
structure_as_smiles=NC(=O)c1cccc2c(N[C@H](CN3CCC3)c3cccc(C(F)(F)F)c3)ncnc12 endpoint_name=pIC50 observed_measurement=7.25
structure_as_smiles=NC(=O)c1cccc2c(N[C@H](CN3CCC3)c3cccc(F)c3)ncnc12 endpoint_name=pIC50 observed_measurement=7.12

// next item, pIC50 requested
(Q) I am curious: what pIC50 value has been reported for NC(=O)c1cccc2c(N[C@H](CN3CCC3)c3ccccc3)ncnc12 ?
(A) 8.80

* * *

Experiment: cells
Type: cell-based
Conditions: Homo sapiens, MDA-MB-468
Endpoint Name: IC50 (nM)
Form entry: value (nM) — number only.

(Q) Fill in the blank: the reported IC50 of NC(=O)c1cccc2c(N[C@H](CN3CCC3)c3cccc(Cl)c3)ncnc12 is ____.
(A) 25

* * *

Test: in vivo
Details: cynomolgus monkey
Description: Half life in cynomolgus monkey
Endpoint Name: half-life

(Q) Given the entry NC(=O)c1cccc2c(N[C@H](CN3CCC3)c3ccc(Cl)c(C(F)(F)F)c3)ncnc12 , report its measured half-life.
(A) 10.1 h

* * *

Test: cells
Assay type: cell-based
Details: Homo sapiens, MDA-MB-468
Endpoint Name: pIC50
# pIC50: negative log10 of molar concentration; output just the value

Field: example entries. Status: answers known.
compound=NC(=O)c1cccc2c(N[C@H](CN3CCC3)c3ccc(F)cc3)ncnc12 observed_measurement=6.99
compound=CNC[C@@H](Nc1ncnc2c(C(N)=O)cccc12)c1cccc(F)c1 observed_measurement=7.35
compound="CNCC(Nc1ncnc2c(C(N)=O)cccc12)c1cccc(F)c1 (racemic)" observed_measurement=7.60
compound=NC(=O)c1cccc2c(N[C@H](CN3CCC3)c3ccc(F)c(F)c3)ncnc12 observed_measurement=7.13
compound=NC(=O)c1cccc2c(N[C@H](CN3CCC3)c3ccc(Cl)c(C(F)(F)F)c3)ncnc12 observed_measurement=7.96
compound=NC(=O)c1cccc2c(N[C@H](CN3CCC3)c3ccc(C(F)(F)F)cc3)ncnc12 observed_measurement=7.55

(Q) Name the reported pIC50 value associated with the compound NC(=O)c1cccc2c(N[C@H](CN3CCC3)c3ccc(Cl)c(F)c3)ncnc12
(A) 7.37

(Q) // repeat for NC(=O)c1cccc2c(N[C@H](CN3CCC3)c3ccc(F)c(C(F)(F)F)c3)ncnc12 and report
(A) 7.37

(Q) And NC(=O)c1cccc2c(N[C@H](CN3CCCC3)c3ccccc3)ncnc12 ?
(A) 8.04

* * *

Test: in vivo
Settings: cynomolgus monkey
Description: Volume of distribution at steady state in cynomolgus monkey
Endpoint Name: Vd (L/kg)
Dear colleague, please return just the value in L/kg, with no unit written.

(Q) What does the data say about its Vd? Entry: NC(=O)c1cccc2c(N[C@H](CN3CCC3)c3ccc(Cl)c(C(F)(F)F)c3)ncnc12
(A) 14.3

* * *

# maps each entry to its fraction unbound
Experiment: in vitro
Settings: human, plasma
Description: Protein binding in human plasma assessed as unbound fraction
Output: the number by itself.

structure_as_smiles=NC(=O)c1cccc2c(N[C@H](CN3CCC3)c3ccc(Cl)c(C(F)(F)F)c3)ncnc12 observed_measurement=0.05

Let's switch to this molecule now.
(Q) What fraction unbound value was documented for this molecule, CNC[C@@H](Nc1ncnc2c(C(N)=O)cccc12)c1cccc(F)c1 ?
(A) 0.15

* * *

Test: in vivo
Settings: mouse
Description: Volume of distribution at steady state in mouse
Endpoint Name: Vd

(Q) // returns reported Vd for input NC(=O)c1cccc2c(N[C@H](CN3CCC3)c3ccc(Cl)c(C(F)(F)F)c3)ncnc12
(A) 9.88 L/kg

* * *

Experiment: in vitro
Conditions: rat, plasma
Description: Protein binding in rat plasma assessed as unbound fraction
Listed below: fraction unbound values for each entry.
// print number alone

molecule=CNC[C@@H](Nc1ncnc2c(C(N)=O)cccc12)c1cccc(F)c1 endpoint_name="fraction unbound" observed_measurement=0.23

Now take the following molecule into account.
(Q) Consider the molecule NC(=O)c1cccc2c(N[C@H](CN3CCC3)c3ccc(Cl)c(C(F)(F)F)c3)ncnc12 [RUPITASERTIB] and give its measured fraction unbound.
(A) 0.05

* * *

Experiment: in vivo
Conditions: mouse, po
Description: Oral bioavailability in mouse
Endpoint Name: bioavailability (%)
Respond numerically; units are % and should not be typed.

molecule="NC(=O)c1cccc2c(N[C@H](CN3CCC3)c3ccc(Cl)c(C(F)(F)F)c3)ncnc12 [RUPITASERTIB]" uom=% observed_measurement=43

With those in mind, consider the next molecule.
(Q) # query: bioavailability of entry CNC[C@@H](Nc1ncnc2c(C(N)=O)cccc12)c1cccc(F)c1
(A) 33

* * *

Test system: MDA-MB-468
Test: cells
Assay type: functional, cell-based
Settings: Homo sapiens, MDA-MB-468, 96 h
Description: Antiproliferative activity against human MDA-MB-468 cells incubated for 96 hrs by luminescence method
Endpoint Name: IC50 (nM)
Give the value, in units of nM, as a plain number.

(Q) Which IC50 reading was recorded for the compound CNC[C@@H](Nc1ncnc2c(C(N)=O)cccc12)c1cccc(F)c1 ?
(A) 197

* * *

Ribosomal protein S6 kinase beta-1 (Homo sapiens, UniProt P23443, T412E): reported pIC50 for various compounds.
Sequence (P23443 whole entry T412E): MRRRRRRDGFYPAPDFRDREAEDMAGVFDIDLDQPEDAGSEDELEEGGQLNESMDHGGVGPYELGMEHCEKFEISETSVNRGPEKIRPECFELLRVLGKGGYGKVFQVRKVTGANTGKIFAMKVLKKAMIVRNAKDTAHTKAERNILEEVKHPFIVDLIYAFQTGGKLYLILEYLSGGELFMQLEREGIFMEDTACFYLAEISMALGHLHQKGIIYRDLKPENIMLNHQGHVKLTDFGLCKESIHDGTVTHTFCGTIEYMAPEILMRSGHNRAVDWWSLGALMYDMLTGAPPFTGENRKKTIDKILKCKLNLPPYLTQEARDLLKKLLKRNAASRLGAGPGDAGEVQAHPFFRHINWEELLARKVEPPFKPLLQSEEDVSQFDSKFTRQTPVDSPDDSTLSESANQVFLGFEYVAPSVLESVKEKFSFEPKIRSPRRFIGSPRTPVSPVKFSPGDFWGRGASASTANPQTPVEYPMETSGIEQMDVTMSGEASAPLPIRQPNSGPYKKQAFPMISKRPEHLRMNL
Here pIC50 is given on a logarithmic scale as minus log10 of the concentration in mol/L.

Some solved entries appear below for comparison.
compound=CNC[C@@H](Nc1nc(C(F)(F)F)nc2c(C(N)=O)cccc12)c1cccc(F)c1 observed_measurement=7.52
compound=NC(=O)c1cccc2c(N[C@H](CN3CCC3)c3ccc(F)c(C(F)(F)F)c3)ncnc12 observed_measurement=8.54
compound=NC(=O)c1cccc2c(N[C@H](CN3CCC3)c3ccc(Cl)c(F)c3)ncnc12 observed_measurement=8.70

(Q) Param item = NC(=O)c1cccc2c(N[C@H](CN3CCC3)c3cccc(F)c3)ncnc12 ; retrieve measured pIC50.
(A) 8.62

(Q) Same for NC(=O)c1cccc2c(N[C@H](CN3CCC3)c3ccc(Cl)c(C(F)(F)F)c3)ncnc12 [RUPITASERTIB]
(A) 8.96

(Q) Quick one: NC(=O)c1cccc2c(N[C@H](CN3CCC3)c3ccc(C(F)(F)F)cc3)ncnc12
(A) 9.00

(Q) Let us now turn to NC(=O)c1cccc2c(N[C@H](CN3CCCC3)c3cccc(F)c3)ncnc12
(A) 7.19

(Q) And NC(=O)c1cccc2c(N[C@H](CN3CCC3)c3ccccc3)ncnc12 ?
(A) 8.21

(Q) Can you check CNCCC(Nc1ncnc2c(C(N)=O)cccc12)c1ccccc1 (stereo unspecified) next?
(A) 6.80

(Q) Item: NC(=O)c1cccc2c(N[C@H](CN3CCC3)c3ccc(F)c(F)c3)ncnc12
(A) 9.00

(Q) Please answer likewise for NC(=O)c1cccc2c(N[C@H](CN3CCC3)c3ccc(F)cc3)ncnc12
(A) 8.10

(Q) Item: CCc1nc(N[C@H](CNC)c2cccc(F)c2)c2cccc(C(N)=O)c2n1
(A) 8.70

These measurements were taken from ChEMBL document CHEMBL4828767.
